- measured.on: human secreted PLA2 (Homo sapiens)
- test.method.notes: chromogenic assay of recombinant human secreted phospholipase A2 inhibition (Assay Example 1)
- settings: mean of 3-5 tests; 40° C., 30 minutes, pH 7.5, 405 nanometers; read-out: Inhibition of human secreted PLA2 IC50 ± mean deviation (3-5 tests)
pIC50: −log10 of the molar value.
We use 6 as the dividing line for pIC50: on or above the line is yes (1), below is no (0).

>  <molecule>
COc1ccc2c(c1)c(CC(=O)NN)c(C)n2Cc1cc(Cl)ccc1Cl

>  <cat>
no (0)

$$$$
>  <molecule>
Cc1c(CC(=O)NN)c2ccccc2n1Cc1ccccc1

>  <cat>
no (0)

$$$$
>  <molecule>
Cc1c(CC(=O)NN)c2c(Br)cccc2n1Cc1ccccc1

>  <cat>
no (0)

$$$$
>  <molecule>
CCc1c(CC(=O)NN)c2cc(OC3CCCC3)ccc2n1Cc1ccccc1

>  <cat>
yes (1)

$$$$
>  <molecule>
COc1ccc2c(c1)c(CC(=O)NN)c(C)n2Cc1ccccn1

>  <cat>
no (0)

$$$$

Given the entry COc1ccc2c(c1)c(CC(=O)NN)c(C)n2CCCc1ccccc1 , answer whether its pIC50 meets or surpasses 6.
no (0)

Given the entry COc1ccc2ccccc2c1Cn1c(C)c(CC(=O)NN)c2ccccc21 , answer whether its pIC50 meets or surpasses 6.
no (0)

Given the entry CCCCCCCCCCn1c(C)c(CC(=O)NN)c2cc(OC)ccc21 , answer whether its pIC50 meets or surpasses 6.
no (0)

Given the entry Cc1c(CC(=O)NN)c2cc(C(=O)O)ccc2n1Cc1cccc(Cl)c1 , answer whether its pIC50 meets or surpasses 6.
yes (1)

---

- measured.on: human secreted PLA2 (Homo sapiens, UniProt P14555)
- test.method.notes: chromogenic assay of recombinant human secreted phospholipase A2 inhibition (Assay Example 1)
- settings: mean of 3-5 tests; 40° C., 30 minutes, pH 7.5, 405 nanometers; read-out: Inhibition of human secreted PLA2 IC50 ± mean deviation (3-5 tests)
Consider the following molecules and their measured IC50 readings.
Answer format: numeric, nM implied, no suffix.

>  <molecule>
CCc1c(CC(=O)NN)c2cc(C)ccc2n1Cc1ccccc1

>  <endpoint.value>
670

$$$$
>  <molecule>
COc1ccc2c(c1)c(CC(=O)NN)cn2Cc1ccccc1-c1ccccc1

>  <endpoint.value>
5490

$$$$
>  <molecule>
Cc1c(CC(=O)NN)c2cc(Br)ccc2n1Cc1cccc(-c2ccccc2)c1

>  <endpoint.value>
1340

$$$$
>  <molecule>
COc1ccc2c(c1)c(CC(=O)NN)c(C)n2Cc1c(Cl)cccc1Cl

>  <endpoint.value>
640

$$$$
>  <molecule>
Cc1c(CC(=O)NN)c2c(-c3ccccc3)cccc2n1Cc1ccccc1

>  <endpoint.value>
2060

$$$$

// below: IC50 requested for another molecule
Param item = Cc1c(CC(=O)NN)c2ccc(Cl)cc2n1Cc1ccccc1 ; retrieve measured IC50.
1140

---

- measured.on: sPLA2 contraction (Homo sapiens)
- test.method.notes: sPLA2-induced contraction of guinea pig lung pleural strips, tissue test (Assay Example 2)
- Parameters: species or system Male Hartley strain guinea pigs
- settings: guinea pig; compound concentration 30 uM; sPLA2 10 ug/ml; read-out: % suppression of sPLA2 contraction at 30 uM
readout.name: inhibition at 30 µM (%)
Answer format: numeric, % implied, no suffix.

// fetch sPLA2 contraction (Homo sapiens) inhibition at 30 µM for CCc1c(CC(=O)NN)c2cc(OC3CCCC3)ccc2n1Cc1ccccc1
60.5

// fetch sPLA2 contraction (Homo sapiens) inhibition at 30 µM for COc1ccc2c(c1)c(CC(=O)NN)c(C)n2Cc1ccccc1-c1ccccc1
-4.2

// fetch sPLA2 contraction (Homo sapiens) inhibition at 30 µM for Cc1c(CC(=O)NN)c2cc(O)ccc2n1Cc1ccccc1
72.3

---

- measured.on: human secreted PLA2 (Homo sapiens)
- Sequence (P14555 21-144): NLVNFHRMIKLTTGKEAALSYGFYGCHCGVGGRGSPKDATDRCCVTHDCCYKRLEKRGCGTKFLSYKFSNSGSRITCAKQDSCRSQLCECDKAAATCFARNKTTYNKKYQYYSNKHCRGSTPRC
- test.method.notes: chromogenic assay of recombinant human secreted phospholipase A2 inhibition (Assay Example 1)
- settings: mean of 3-5 tests; 40° C., 30 minutes, pH 7.5, 405 nanometers; read-out: Inhibition of human secreted PLA2 IC50 ± mean deviation (3-5 tests)
pIC50: −log10 of the molar value.
We use 6 as the dividing line for pIC50: on or above the line is condition met, below is condition not met.

>  <compound>
COc1ccc2c(c1)c(CC(=O)NN)c(C)n2CC(C)C [Example 13]

>  <cat>
condition not met

$$$$

Given the entry COc1ccc2c(c1)c(CC(=O)NN)c(Cl)n2Cc1ccccc1 [Example 43] , answer whether its pIC50 meets or surpasses 6.
condition met

---

Consider the following molecules and their measured inhibition at 10 µM readings.
- measured.on: sPLA2 contraction (Homo sapiens, UniProt P14555)
- test.method.notes: sPLA2-induced contraction of guinea pig lung pleural strips, tissue test (Assay Example 2)
- Set-up: species or system Male Hartley strain guinea pigs
- settings: guinea pig; compound concentration 10 uM; sPLA2 10 ug/ml; read-out: % suppression of sPLA2 contraction at 10 uM
Answer format: numeric, % implied, no suffix.

These recorded examples may help you get a feel for the data.
>  <molecule>
COc1ccc2c(c1)c(CC(=O)NN)c(C)n2Cc1ccccc1 [Example 16]

>  <readout.name>
inhibition at 10 µM

>  <endpoint.value>
55.2

$$$$
>  <molecule>
Cc1c(CC(=O)NN)c2cc(Br)ccc2n1Cc1cccc(OCc2ccccc2)c1 [Example 52]

>  <readout.name>
inhibition at 10 µM

>  <endpoint.value>
37.8

$$$$

Param item = COc1ccc2c(c1)c(CC(=O)NN)c(C)n2Cc1cccc(Cl)c1 [Example 18] ; retrieve measured inhibition at 10 µM.
70.7

Param item = COc1ccc2c(c1)c(CC(=O)NN)c(C)n2Cc1cccc(OCc2ccccc2)c1 [Example 30] ; retrieve measured inhibition at 10 µM.
21.4

Param item = Cc1c(CC(=O)NN)c2cc(C(=O)O)ccc2n1Cc1cccc(Cl)c1 [Example 68] ; retrieve measured inhibition at 10 µM.
41.2

---

- measured.on: sPLA2 contraction (Homo sapiens)
- test.method.notes: sPLA2-induced contraction of guinea pig lung pleural strips, tissue test (Assay Example 2)
- Parameters: species or system Male Hartley strain guinea pigs
- settings: guinea pig; compound concentration 30 uM; sPLA2 10 ug/ml; read-out: % suppression of sPLA2 contraction at 30 uM
readout.name: inhibition at 30 µM (%)
Answer format: numeric, % implied, no suffix.

These recorded examples may help you get a feel for the data.
>  <molecule>
COc1ccc2c(c1)c(CC(=O)NN)c(C)n2Cc1cccc(-c2ccccc2)c1 [Example 25]

>  <readout.name>
inhibition at 30 µM

>  <endpoint.value>
7.3

$$$$
>  <molecule>
Cc1c(CC(=O)NN)c2cc(C(=O)O)ccc2n1Cc1cccc(Cl)c1 [Example 68]

>  <readout.name>
inhibition at 30 µM

>  <endpoint.value>
48

$$$$
>  <molecule>
Cc1c(CC(=O)NN)c2cc(Br)ccc2n1Cc1cccc(OCc2ccccc2)c1 [Example 52]

>  <readout.name>
inhibition at 30 µM

>  <endpoint.value>
29.1

$$$$
>  <molecule>
CCc1c(CC(=O)NN)c2cc(OC)ccc2n1Cc1ccccc1-c1ccccc1 [Example 4]

>  <readout.name>
inhibition at 30 µM

>  <endpoint.value>
11

$$$$
>  <molecule>
COc1ccc2c(c1)c(CC(=O)NN)c(Cl)n2Cc1ccccc1 [Example 43]

>  <readout.name>
inhibition at 30 µM

>  <endpoint.value>
91.3

$$$$
>  <molecule>
COc1ccc2c(c1)c(CC(=O)NN)c(C)n2Cc1cccc(Cl)c1 [Example 18]

>  <readout.name>
inhibition at 30 µM

>  <endpoint.value>
98

$$$$
>  <molecule>
COc1ccc2c(c1)c(CC(=O)NN)c(C)n2Cc1ccccc1 [Example 16]

>  <readout.name>
inhibition at 30 µM

>  <endpoint.value>
83.9

$$$$

// below: inhibition at 30 µM requested for another molecule
Param item = Cc1c(CC(=O)NN)c2cc(C(=O)NN)ccc2n1Cc1ccccc1 [Example 70] ; retrieve measured inhibition at 30 µM.
45.1

---

- measured.on: human secreted PLA2 (Homo sapiens)
- test.method.notes: chromogenic assay of recombinant human secreted phospholipase A2 inhibition (Assay Example 1)
- settings: mean of 3-5 tests; 40° C., 30 minutes, pH 7.5, 405 nanometers; read-out: Inhibition of human secreted PLA2 IC50 ± mean deviation (3-5 tests)
readout.name: IC50 (nM)
Answer format: numeric, nM implied, no suffix.

These recorded examples may help you get a feel for the data.
>  <compound>
Cc1c(CC(=O)NN)c2cc(Br)ccc2n1Cc1cccc(OCc2ccccc2)c1

>  <result.unit>
nM

>  <endpoint.value>
710

$$$$
>  <compound>
COc1ccc2c(c1)c(CC(=O)NN)c(C)n2Cc1cccc(Cl)c1

>  <result.unit>
nM

>  <endpoint.value>
1020

$$$$
>  <compound>
Cc1c(CC(=O)NN)c2cc(Br)ccc2n1Cc1ccccc1

>  <result.unit>
nM

>  <endpoint.value>
1020

$$$$
>  <compound>
CCCCCCCCCCOc1cccc(Cn2c(C)c(CC(=O)NN)c3cc(OC)ccc32)c1

>  <result.unit>
nM

>  <endpoint.value>
840

$$$$

Param item = CCc1c(CC(=O)NN)c2cc(F)ccc2n1Cc1ccccc1 ; retrieve measured IC50.
1520

Param item = Cc1c(CC(=O)NN)c2cc(OCCCC(=O)O)ccc2n1Cc1ccccc1 ; retrieve measured IC50.
860

Param item = COc1ccc2c(c1)c(CC(=O)NN)c(C)n2Cc1cccc(C)c1 ; retrieve measured IC50.
1540

Param item = Cc1c(CC(=O)NN)c2ccc(-c3ccccc3)cc2n1Cc1ccccc1 ; retrieve measured IC50.
930

Param item = Cc1c(CC(=O)NN)c2cc(OCc3ccc4ccccc4n3)ccc2n1Cc1ccccc1 ; retrieve measured IC50.
360
